B1: tRNA (parent)
chain: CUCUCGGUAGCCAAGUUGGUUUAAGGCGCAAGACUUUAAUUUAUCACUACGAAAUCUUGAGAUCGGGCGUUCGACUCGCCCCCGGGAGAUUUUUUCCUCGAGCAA

# Variants of: B1
# Experimental Details: nonsense suppression (GFP-seq) (ratio to wild type); higher = more function; SUP4oc tRNA, yeast GFP reporter sort-seq
This sample holds only a part of the variants without activity.
Measured Parameter: nonsense suppression

Returns the measured nonsense suppression for the input variant. Input: U4G G6A
0.0297

Returns the measured nonsense suppression for the input variant. Input: U4C A13G C83U
0.334

Returns the measured nonsense suppression for the input variant. Input: G78A G88C
0.0845

Returns the measured nonsense suppression for the input variant. Input: A9G U16G
0.551

Returns the measured nonsense suppression for the input variant. Input: U2A A24G G25A
≤ 0.026

Returns the measured nonsense suppression for the input variant. Input: U17C U22A
0.758

Returns the measured nonsense suppression for the input variant. Input: A13C A14U
0.206

Returns the measured nonsense suppression for the input variant. Input: G61C U63G
0.12

Returns the measured nonsense suppression for the input variant. Input: A13G C75A
0.71

Returns the measured nonsense suppression for the input variant. Input: C1U U2G G18U
≤ 0.026

Returns the measured nonsense suppression for the input variant. Input: U2C A60C C75U
≤ 0.026

Returns the measured nonsense suppression for the input variant. Input: C11U U55A G61C G88C
≤ 0.026

Returns the measured nonsense suppression for the input variant. Input: U21C G67A
0.0282

Returns the measured nonsense suppression for the input variant. Input: C64G U70C G84U
≤ 0.026

Returns the measured nonsense suppression for the input variant. Input: C1G A13U G25U G59C
≤ 0.026

Returns the measured nonsense suppression for the input variant. Input: G7U U55C C68U A89C
≤ 0.026

Returns the measured nonsense suppression for the input variant. Input: C5A G78A
0.0335

Returns the measured nonsense suppression for the input variant. Input: U58G U70C
≤ 0.026

Returns the measured nonsense suppression for the input variant. Input: A14U C27A G78C A87C
≤ 0.026

Returns the measured nonsense suppression for the input variant. Input: U17A G28A G85A
1.02

Returns the measured nonsense suppression for the input variant. Input: C5U G7U G25A
≤ 0.026

Returns the measured nonsense suppression for the input variant. Input: U55G A89U
≤ 0.026
